Reference source: patent US20240376151A1

measuredTarget: beta-catenin (Homo sapiens)
Construct: made in house; host or cells: E. coli BL21 (DE3) pLysS
Sequence (P35222 134-665): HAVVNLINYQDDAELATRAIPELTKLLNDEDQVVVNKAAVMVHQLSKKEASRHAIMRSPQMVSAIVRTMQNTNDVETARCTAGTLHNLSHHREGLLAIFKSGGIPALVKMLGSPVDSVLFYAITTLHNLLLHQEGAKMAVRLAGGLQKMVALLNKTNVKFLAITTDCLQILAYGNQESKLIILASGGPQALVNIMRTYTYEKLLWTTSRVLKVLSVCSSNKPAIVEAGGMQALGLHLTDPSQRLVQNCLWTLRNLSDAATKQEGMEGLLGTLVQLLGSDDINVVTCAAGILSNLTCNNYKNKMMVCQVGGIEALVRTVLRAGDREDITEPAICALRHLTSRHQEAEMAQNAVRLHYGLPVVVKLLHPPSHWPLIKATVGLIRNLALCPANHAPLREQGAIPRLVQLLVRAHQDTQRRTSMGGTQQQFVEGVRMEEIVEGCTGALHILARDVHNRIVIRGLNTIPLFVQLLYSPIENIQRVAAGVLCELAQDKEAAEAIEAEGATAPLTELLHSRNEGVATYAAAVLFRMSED
protocol: Phage Library Screening with NGS, beta-catenin
Format: binding
studyConditions: beta-catenin target concentration 300; no competitor
Ends that are not written are not given here.
assayReadout: Target Concentration 300 (phage screen NGS readout)

{"columns": ["sequenceContent", "measuredTarget", "measurement"],
 "data": [
  ["DPAADDCVLAAHVCAYF", "beta-catenin (Homo sapiens)", 397],
  ["DPANVECEWAAIHCSLV", "beta-catenin (Homo sapiens)", 158],
  ["DPAIMACYQAAFWCQYN", "beta-catenin (Homo sapiens)", 27],
  ["DPAILDCQIAAIECEFA", "beta-catenin (Homo sapiens)", 68],
  ["DPAVLECHIAAWECNHT", "beta-catenin (Homo sapiens)", 67],
  ["DPAWILCDWAAMHCELV", "beta-catenin (Homo sapiens)", 3],
  ["DPAVLQCYEAAFICEYM", "beta-catenin (Homo sapiens)", 6],
  ["DPAVQDCEWAAIYCELI", "beta-catenin (Homo sapiens)", 158],
  ["DPATWHCDWAAEHCELL", "beta-catenin (Homo sapiens)", 147],
  ["DPAILECHMAAFECYIE", "beta-catenin (Homo sapiens)", 59],
  ["DPAEFYCEMAAVHCELL", "beta-catenin (Homo sapiens)", 99],
  ["DPASWDCDHAALLCTLD", "beta-catenin (Homo sapiens)", 257],
  ["DPAIIRCYEAAFYCQNY", "beta-catenin (Homo sapiens)", 67],
  ["DPAFLDCHIAAWTCNEF", "beta-catenin (Homo sapiens)", 15],
  ["DPAVMACYEAAFQCAYW", "beta-catenin (Homo sapiens)", 4],
  ["DPAILECYEAAFECQYM", "beta-catenin (Homo sapiens)", 49],
  ["DPADDFCMWAAEHCELL", "beta-catenin (Homo sapiens)", 226],
  ["DPAYWVCEHAALLCTDY", "beta-catenin (Homo sapiens)", 337],
  ["DPAENTCSWAAEHCALV", "beta-catenin (Homo sapiens)", 26],
  ["DPAVLECHIAAWECRMD", "beta-catenin (Homo sapiens)", 83],
  ["DPAHWRCEHAALLCWYN", "beta-catenin (Homo sapiens)", 132],
  ["DPALWNCDHAALLCDHQ", "beta-catenin (Homo sapiens)", 8],
  ["DPAILTCYEAAFTCQYQ", "beta-catenin (Homo sapiens)", 71],
  ["DPAMWICEHAALNCEIR", "beta-catenin (Homo sapiens)", 158],
  ["DPAVIACYDAAFVCEYF", "beta-catenin (Homo sapiens)", 0],
  ["DPAEIICYEAAFLCQYQ", "beta-catenin (Homo sapiens)", 15],
  ["DPAIADCDWAAEHCDLL", "beta-catenin (Homo sapiens)", 266],
  ["DPAIMACYEAAYLCDYI", "beta-catenin (Homo sapiens)", 85],
  ["DPADYECVIAAQVCQHF (not fully specified; cysteine pairing not given here)", "beta-catenin (Homo sapiens)", 18],
  ["DPAEVDCIMAAHICVWD", "beta-catenin (Homo sapiens)", 42],
  ["DPADYDCILAAHICTNI", "beta-catenin (Homo sapiens)", 147],
  ["DPAHLMCHYAAWDCRDE", "beta-catenin (Homo sapiens)", 13],
  ["DPAVIQCYQAAFHCDYQ", "beta-catenin (Homo sapiens)", 13],
  ["DPAMSQCNWAAVHCQLL", "beta-catenin (Homo sapiens)", 13],
  ["DPAWWQCDHAALICIAE", "beta-catenin (Homo sapiens)", 637],
  ["DPAAQRCTWAAIHCELI", "beta-catenin (Homo sapiens)", 39],
  ["DPAILDCSIAAIDCAYS", "beta-catenin (Homo sapiens)", 42],
  ["DPAFESCFLAAHICYWE", "beta-catenin (Homo sapiens)", 7],
  ["DPARMTCYEAAFRCQYY", "beta-catenin (Homo sapiens)", 3],
  ["DPAYTYCQWAAEHCSLL", "beta-catenin (Homo sapiens)", 88],
  ["DPAWSDCIWAAEHCQLI", "beta-catenin (Homo sapiens)", 127],
  ["DPAILQCYEAAFSCHYQ", "beta-catenin (Homo sapiens)", 54],
  ["DPASWRCEHAALNCQID", "beta-catenin (Homo sapiens)", 18],
  ["DPAALSCYQAAFHCQYY", "beta-catenin (Homo sapiens)", 5],
  ["DPARHECILAAHICEWE", "beta-catenin (Homo sapiens)", 1704],
  ["DPAEWACEHAALTCWDQ", "beta-catenin (Homo sapiens)", 448],
  ["DPAVLDCHIAALDCHAH", "beta-catenin (Homo sapiens)", 10],
  ["DPADNECILAAHICTLA", "beta-catenin (Homo sapiens)", 36],
  ["DPAEHDCMLAAHFCRHF", "beta-catenin (Homo sapiens)", 194],
  ["DPAEWYCEHAALVCTNH", "beta-catenin (Homo sapiens)", 156],
  ["DPAWQNCTWAAFHCELL", "beta-catenin (Homo sapiens)", 194],
  ["DPAHWVCEHAALNCDQN", "beta-catenin (Homo sapiens)", 96],
  ["DPAILDCHIAAIQCFHD", "beta-catenin (Homo sapiens)", 8],
  ["DPAVDECIIAAHICHIW", "beta-catenin (Homo sapiens)", 44]
]}

====

Here, each record is paired with measured Phage library screen NGS readout, BLANK data.
measuredTarget: RNF31 PUB domain (Homo sapiens)
Construct: MBP-TEV (N, cleaved yes); made in house; host or cells: E. coli BL21 (DE3) pLysS
Sequence (Q96EP0 1-179): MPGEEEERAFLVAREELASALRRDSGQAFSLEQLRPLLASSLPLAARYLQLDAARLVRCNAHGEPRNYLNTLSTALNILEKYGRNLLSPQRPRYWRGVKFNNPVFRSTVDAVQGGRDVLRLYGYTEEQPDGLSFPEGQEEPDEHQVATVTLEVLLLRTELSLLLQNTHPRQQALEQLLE
protocol: Phage Library Screening with NGS, RNF31 PUB domain
Assay type: binding
studyConditions: clusters C41-C45; BLANK screen, column 4 of 5

{"columns": ["sequenceContent", "Phage library screen NGS readout, BLANK"],
 "data": [
  ["DPAHDWCLYAAYDCRVY", 0],
  ["DPAYDWCMYAAYNCVED", 0],
  ["DPAFWACLYAAEECVVD", 0],
  ["DPAWWNCLYAADECWSW", 0],
  ["DPAVVDCWDAAVQCTYY", 2],
  ["DPAMQDCQLAALVCTTY", 0],
  ["DPAEDECDWAALYCDMQ", 0],
  ["DPAYDYCLYAAYDCTQT", 1],
  ["DPAYEDCAWAALYCDMT", 0],
  ["DPAYWDCMYAAFYCDDI", 0],
  ["DPAWESCMYAAYDCDNE", 0],
  ["DPAWMQCMYAAWDCNIE", 0],
  ["DPARDWCLYAAYDCYTA (Ac-DPARDWCLYAAYDCYTA-NH2; not fully specified (bridges); cysteine pairing not given here)", 1],
  ["DPAQDQCISAAVLCTYT", 0],
  ["DPALVTCTWAAIYCDDF", 2]
]}

====

measuredTarget: CHIP (Homo sapiens)
Construct: N-term truncated CHIP (also known as STUB1, Uniprot ID: Q9UNE7, residues 23-303); made in house; host or cells: E. coli BL21 CodonPlus
Sequence (Q9UNE7 23-303): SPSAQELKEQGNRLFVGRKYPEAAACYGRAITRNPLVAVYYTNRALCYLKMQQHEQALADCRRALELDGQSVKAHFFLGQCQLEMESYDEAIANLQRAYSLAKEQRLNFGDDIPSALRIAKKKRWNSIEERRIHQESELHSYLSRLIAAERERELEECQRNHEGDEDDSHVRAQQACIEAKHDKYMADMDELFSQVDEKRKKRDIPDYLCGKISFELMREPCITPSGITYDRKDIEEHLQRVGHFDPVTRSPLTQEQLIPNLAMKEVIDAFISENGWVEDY
protocol: Naive Library Presenter Screening (phage, NGS), CHIP
Assay type: binding
studyConditions: CHIP target concentration 30 nM
Numbered stars: 1 amine (or outer) side, 2 acyl side, 3 side chain; on linkers, the order of the positions; unused ones are H or OH. Bridge positions count the residues as written; N and C are the ends. Ends that are not written are not given here. Phenylene(1,4-NHCOCH2)2 = O=C(C[*:1])Nc1ccc(NC(=O)C[*:2])cc1
Here, each record is paired with measured interaction data at Target Concentration 30 data.
assayReadout: interaction data at Target Concentration 30

{"columns": ["sequenceContent", "measuredTarget", "measurement"],
 "data": [
  ["PCWNAWMVCSV (linker 2-9 via Phenylene(1,4-NHCOCH2)2 (inferred))", "CHIP (Homo sapiens)", 44],
  ["PCWEAWLWCSM (linker 2-9 via Phenylene(1,4-NHCOCH2)2 (inferred))", "CHIP (Homo sapiens)", 0],
  ["ICYNAWLECA (linker 2-9 via Phenylene(1,4-NHCOCH2)2 (inferred))", "CHIP (Homo sapiens)", 1],
  ["ICWAAWVSCS (linker 2-9 via Phenylene(1,4-NHCOCH2)2 (inferred))", "CHIP (Homo sapiens)", 0]
]}
